- SYSTEM_UNDER_TEST: Pro-neuregulin-1, membrane-bound isoform (Homo sapiens)
- TEST_PROTOCOL: NRG1 binders on small-molecule microarrays, primary screen, psychiatric disease protein project, biochemical, small-molecule microarray, fluorescence 635/667 (AID 1075);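 also: score combines 667 nm spot fluorescence with signal to noise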
- EXPERIMENTAL_CONTEXT: NRG1 binding, 635 nm fluorescence, higher = more signal
Criterion: composite z-score meeting or surpassing -0.09. Met: met. Not met: not met.

Field: example entries. Status: answers known.
# bool: composite z-score of `C[C@H]1CC[C@H]2C(=O)N[C@H](Cc3ccccc3)C(=O)N2[C@@H]1c1ccccc1` >= -0.09
not met

Quick check: does `CO[C@@H]1COC(=O)CC=C[C@H](C)[C@H](OC)COC(=O)[C@@H]2CCCN2C(=O)CC=C[C@H]1C` have composite z-score greater than or equal to -0.09?
not met

composite z-score >= -0.09 for `CSCC[C@@H]1NC(=O)CC=C[C@@H](C)COC(=O)[C@H](C)COC1=O` ?
not met

Dear colleague, could you confirm whether `CCN1C(=O)[C@H]2[C@H]3[C@H](O)[C@H](O)CC(=NOCC(C)C)[C@H]3CC[C@H]2C1=O` has composite z-score at or above -0.09?
not met

Continuing:
In plain terms: is recorded composite z-score at least -0.09 for `COc1ccc(COC(=O)NN=C2C[C@@H](O)[C@@H](O)[C@@H]3[C@@H]4C(=O)N([C@@H](C)c5ccccc5)C(=O)[C@@H]4CC[C@H]23)cc1` ?
not met

Answer whether composite z-score of `CON=C1c2cc(OC)ccc2O[C@H](c2cccc(OC)c2)[C@H]1O` is greater than or equal to -0.09.
met

Could you tell me if the measured composite z-score of `CC(C)=CCCC(C)=CCON=C1C[C@@H](O)[C@@H](O)[C@@H]2[C@@H]3C(=O)N(c4cccc(Oc5ccccc5)c4)C(=O)[C@@H]3CC[C@H]12` reaches -0.09 or more?
met

Please check the record `COc1ccc(COC(=O)NN=C2C[C@@H](O)[C@@H](O)[C@@H]3[C@@H]4C(=O)N(Cc5ccccc5)C(=O)[C@@H]4CC[C@@H]23)cc1` and state if its composite z-score is at or above -0.09.
not met

Form field: composite z-score at least -0.09? Entry: `CON(C)C(=O)c1nnc2c(n1)[nH]c1ccccc12`
met

Reported composite z-score reaches at least -0.09 for `CC(C)(C)N1C(=O)[C@H]2[C@H]3[C@H](O)[C@H](O)CC(=NNC(=O)OCc4ccccc4)[C@@H]3CC[C@H]2C1=O` ?
met

Is composite z-score at least -0.09? Consider CC(CCC(=O)OC[C@H]1O[C@H](C#Cc2ccccc2)C=C[C@@H]1Oc1ccc(C)cc1)=NOC(C)CN1CCCCc2nc(C)c(C)cc21 (stereo partly specified)
met

Hello, I need to know if `CCCNC(=O)OC[C@H]1O[C@H](CCON=C2C[C@@H](O)[C@@H](O)[C@@H]3[C@@H]4C(=O)N(CC)C(=O)[C@@H]4CC[C@@H]23)C=C[C@@H]1Oc1ccc(OC)cc1` has measured composite z-score not below -0.09. Thanks!
met

Could you verify whether the entry `CCO[C@H](c1cc(OC)cc([N+](=O)[O-])c1OC)[C@H](C)[C@@H](OC)[C@H](C)C=CCC(=O)OC` shows composite z-score of no less than -0.09?
met
